# EXPERIMENTAL TARGET: recombinant human Mcl-1 (residues 171-327) / Bim interaction (Homo sapiens (Human), UniProt Q07820)
# Sequence (Q07820 171-327): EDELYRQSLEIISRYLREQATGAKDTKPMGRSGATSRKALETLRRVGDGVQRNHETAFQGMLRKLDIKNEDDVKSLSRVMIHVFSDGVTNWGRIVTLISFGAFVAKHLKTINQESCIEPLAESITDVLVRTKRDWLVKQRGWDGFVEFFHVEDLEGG
# EXPERIMENT NOTES: biochemical
# Assay type: binding
# RUN PARAMETERS: TR-FRET, Mcl-1(171-327) / biotin-Bim (51-76); read-out: Mcl-1 HTRF IC50
OBSERVED PROPERTY: pIC50
Please report pIC50 as the negative decimal logarithm of the molar concentration, giving only the number.

// solved cases for pIC50 follow
CO[C@]1(C[C@H](O)C(C)C)/C=C/C[C@H](C)[C@@H](C)S(=O)(=O)NC(=O)c2ccc3c(c2)N(C[C@@H]2CC[C@H]21)C[C@@]1(CCCc2cc(Cl)ccc21)CO3 [Example 100358]; 9.93
CO[C@@]1(C)/C=C/C[C@H](C)[C@@H](CCO)S(=O)(=O)NC(=O)c2ccc3c(c2)N(C[C@@H]2CC[C@H]21)C[C@@]1(CCCc2cc(Cl)ccc21)CO3 (single isomer, unassigned) [Example 100596]; 9.64

Q) Supply recorded pIC50 for C[C@@H]1[C@@H](C)C/C=C/[C@](O)(c2nc(CO)nn2C)[C@@H]2CC[C@H]2CN2C[C@@]3(CCCc4cc(Cl)ccc43)COc3ccc(cc32)C(=O)NS1(=O)=O here.
A) 10.07

Q) Supply recorded pIC50 for C[C@@H]1[C@@H](C)CCCC(CN2CCOCC2)(CN2CCOCC2)[C@@H]2CC[C@H]2CN2C[C@@]3(CCCc4cc(Cl)ccc43)COc3ccc(cc32)C(=O)NS1(=O)=O here.
A) 10.11

Q) Supply recorded pIC50 for C[C@H]1CC/C=C/[C@](C)(O)[C@@H]2CC[C@H]2CN2C[C@@]3(CCCc4cc(Cl)ccc43)COc3ccc(cc32)C(=O)NS1(=O)=O (single isomer, unassigned) [Example 100029] here.
A) 8.06

* * *

Documented pIC50 across a set of molecules
# EXPERIMENTAL TARGET: recombinant human Mcl-1 (residues 171-327) / Bim interaction (Homo sapiens (Human), UniProt Q07820)
# EXPERIMENT NOTES: biochemical
# Format: binding
# RUN PARAMETERS: TR-FRET, Mcl-1(171-327) / biotin-Bim (51-76); read-out: Mcl-1 HTRF IC50
Please report pIC50 as the negative decimal logarithm of the molar concentration, giving only the number.

// solved cases for pIC50 follow
C[C@@H]1[C@@H](C)C/C=C/[C@](O)(c2ccncn2)[C@@H]2CC[C@H]2CN2C[C@@]3(CCCc4cc(Cl)ccc43)COc3ccc(cc32)C(=O)NS1(=O)=O; 9.68
C=CC[C@]1(OC)/C=C/C[C@H](C)[C@@H](C)S(=O)(=O)NC(=O)c2ccc3c(c2)N(C[C@@H]2CC[C@H]21)C[C@@]1(CCCc2cc(Cl)ccc21)CO3; 9.70
CCOC(=O)C(F)(F)[C@@]1(O)/C=C/C[C@H](C)[C@@H](C)S(=O)(=O)NC(=O)c2ccc3c(c2)N(C[C@@H]2CC[C@H]21)C[C@@]1(CCCc2cc(Cl)ccc21)CO3; 9.20
C[C@@H]1[C@@H](C)CCC[C@](CO)(OCCN2CCOCC2)[C@@H]2CC[C@H]2CN2C[C@@]3(CCCc4cc(Cl)ccc43)COc3ccc(cc32)C(=O)NS1(=O)=O [Example 100280]; 9.43

Q) Supply recorded pIC50 for CO[C@]1(CO)/C=C/C[C@H](C)[C@@H](C)S(=O)(=O)NC(=O)c2ccc3c(c2)N(C[C@@H]2CC[C@H]21)C[C@@]1(CCCc2cc(Cl)ccc21)CO3 here.
A) 10.06

* * *

# EXPERIMENTAL TARGET: recombinant human Mcl-1 (residues 171-327) / Bim interaction (Homo sapiens (Human))
# EXPERIMENT NOTES: biochemical
# Format: binding
# RUN PARAMETERS: TR-FRET, Mcl-1(171-327) / biotin-Bim (51-76); read-out: Mcl-1 HTRF IC50
OBSERVED PROPERTY: pIC50
Please report pIC50 as the negative decimal logarithm of the molar concentration, giving only the number.

COC(OC)c1cncc([C@]2(O)/C=C/C[C@H](C)[C@@H](C)S(=O)(=O)NC(=O)c3ccc4c(c3)N(C[C@@H]3CC[C@H]32)C[C@@]2(CCCc3cc(Cl)ccc32)CO4)c1 (single isomer, unassigned) [Example 100510]; 10.15

Q) Supply recorded pIC50 for CO[C@@]1([C@H](C)O)/C=C/C[C@H](C)[C@@H](C)S(=O)(=O)NC(=O)c2ccc3c(c2)N(C[C@@H]2CC[C@H]21)C[C@@]1(CCCc2cc(Cl)ccc21)CO3 (single isomer, unassigned) [Example 100486] here.
A) 9.42

Q) Supply recorded pIC50 for CO[C@@]1(Cc2nc(C)co2)/C=C/C[C@H](C)[C@@H](C)S(=O)(=O)NC(=O)c2ccc3c(c2)N(C[C@@H]2CC[C@H]21)C[C@@]1(CCCc2cc(Cl)ccc21)CO3 [Example 100527] here.
A) 8.44

Q) Supply recorded pIC50 for CO[C@@]1(c2cnc(Cl)n2C)/C=C/C[C@H](C)[C@@H](C)S(=O)(=O)NC(=O)c2ccc3c(c2)N(C[C@@H]2CC[C@H]21)C[C@@]1(CCCc2cc(Cl)ccc21)CO3 (single isomer, unassigned) [Example 100558] here.
A) 10.07

* * *

# EXPERIMENTAL TARGET: recombinant human Mcl-1 (residues 171-327) / Bim interaction (Homo sapiens (Human))
# EXPERIMENT NOTES: biochemical
# Assay type: binding
# RUN PARAMETERS: TR-FRET, Mcl-1(171-327) / biotin-Bim (51-76); read-out: Mcl-1 HTRF IC50
Threshold 400 pM: IC50 strictly smaller gives 1.0, otherwise 0.0.

Solved cases (6 shown):
CO[C@]1(C#CCCO)/C=C/C[C@H](C)[C@@H](C)S(=O)(=O)NC(=O)c2ccc3c(c2)N(C[C@@H]2CC[C@H]21)C[C@@]1(CCCc2cc(Cl)ccc21)CO3; 1.0
CO[C@@]1(C[C@@H](O)C(C)C)/C=C/C[C@H](C)[C@@H](C)S(=O)(=O)NC(=O)c2ccc3c(c2)N(C[C@@H]2CC[C@H]21)C[C@@]1(CCCc2cc(Cl)ccc21)CO3 (single isomer, unassigned) [Example 100367]; 1.0
CO[C@@]1(CC(=O)N2CCN(C)C[C@H]2C)/C=C/C[C@H](C)[C@@H](C)S(=O)(=O)NC(=O)c2ccc3c(c2)N(C[C@@H]2CC[C@H]21)C[C@@]1(CCCc2cc(Cl)ccc21)CO3 (single isomer, unassigned) [Example 100479]; 0.0
CO[C@@]1(C#CCO)/C=C/C[C@H](C)[C@@H](C)S(=O)(=O)NC(=O)c2ccc3c(c2)N(C[C@@H]2CC[C@H]21)C[C@@]1(CCCc2cc(Cl)ccc21)CO3 [Example 100344]; 1.0
C=CC[C@]1(O)CCC[C@H](C)[C@@H](C)S(=O)(=O)NC(=O)c2ccc3c(c2)N(C[C@@H]2CC[C@H]21)C[C@@]1(CCCc2cc(Cl)ccc21)CO3 (single isomer, unassigned) [Example 100266]; 1.0
C[C@@H]1[C@@H](C)CCC[C@]2(CO2)[C@@H]2CC[C@H]2CN2C[C@@]3(CCCc4cc(Cl)ccc43)COc3ccc(cc32)C(=O)NS1(=O)=O (stereo in doubt); 0.0

Q) Is IC50 of C[C@@H]1[C@@H](C)C/C=C/[C@@](O)(CC(=O)N2CCCCC2)[C@@H]2CC[C@H]2CN2C[C@@]3(CCCc4cc(Cl)ccc43)COc3ccc(cc32)C(=O)NS1(=O)=O [Example 100257] strictly below 400 pM?
A) 1.0

Q) Is IC50 of C[C@@H]1[C@@H](C)CCC[C@@](O)([C@@H]2CCN(C)C2=O)[C@@H]2CC[C@H]2CN2C[C@@]3(CCCc4cc(Cl)ccc43)COc3ccc(cc32)C(=O)NS1(=O)=O [Example 100204] strictly below 400 pM?
A) 0.0

Q) Is IC50 of CO[C@]1(C[C@H](O)C(C)C)/C=C/C[C@H](C)[C@@H](C)S(=O)(=O)NC(=O)c2ccc3c(c2)N(C[C@@H]2CC[C@H]21)C[C@@]1(CCCc2cc(Cl)ccc21)CO3 [Example 100359] strictly below 400 pM?
A) 0.0

* * *

# EXPERIMENTAL TARGET: recombinant human Mcl-1 (residues 171-327) / Bim interaction (Homo sapiens (Human), UniProt Q07820)
# EXPERIMENT NOTES: biochemical
# Assay type: binding
# RUN PARAMETERS: 0.1 nM Mcl-1(171-327), 0.05 nM biotin-Bim (51-76); read-out: Mcl-1 HTRF IC50
OBSERVED PROPERTY: log10 of IC50 (log10 of the value in nM)
Values below are the log10 of the recorded IC50, with nM as the unit.

Q) Supply recorded log10 of IC50 for CO[C@@]1(CN2CCC3(CCOCC3)CC2)/C=C/C[C@H](C)[C@@H](C)S(=O)(=O)NC(=O)c2ccc3c(c2)N(C[C@@H]2CC[C@H]21)C[C@@]1(CCCc2cc(Cl)ccc21)CO3 [Example 264] here.
A) -0.40

Q) Supply recorded log10 of IC50 for CCO[C@@]1(CN2CCC(OC)CC2)/C=C/C[C@H](C)[C@@H](C)S(=O)(=O)NC(=O)c2ccc3c(c2)N(C[C@@H]2CC[C@H]21)C[C@@]1(CCCc2cc(Cl)ccc21)CO3 [Example 113] here.
A) 0.08

Q) Supply recorded log10 of IC50 for CO[C@@]1(CN(C)C)/C=C/C[C@H](C)[C@@H](C)S(=O)(=O)NC(=O)c2ccc3c(c2)N(C[C@@H]2CC[C@H]21)C[C@@]1(CCCc2cc(Cl)ccc21)CO3 [Example 66] here.
A) -0.61

Q) Supply recorded log10 of IC50 for CO[C@@]1(CN2CC(=O)N3CCCC[C@@H]3C2)/C=C/C[C@H](C)[C@@H](C)S(=O)(=O)NC(=O)c2ccc3c(c2)N(C[C@@H]2CC[C@H]21)C[C@@]1(CCCc2cc(Cl)ccc21)CO3 [Example 150] here.
A) -0.71

Q) Supply recorded log10 of IC50 for COCC[C@@H]1[C@@H](C)C/C=C/[C@@](CN2C[C@@H](C)N(C)[C@@H](C)C2)(OC)[C@@H]2CC[C@H]2CN2C[C@@]3(CCCc4cc(Cl)ccc43)COc3ccc(cc32)C(=O)NS1(=O)=O [Example 191] here.
A) -1.02

Q) Supply recorded log10 of IC50 for CO[C@@]1(CN2CCN(CCC#N)CC2)/C=C/C[C@H](C)[C@@H](C)S(=O)(=O)NC(=O)c2ccc3c(c2)N(C[C@@H]2CC[C@H]21)C[C@@]1(CCCc2cc(Cl)ccc21)CO3 [Example 318] here.
A) -0.86

Q) Supply recorded log10 of IC50 for CO[C@@]1(CN2CC3(C2)CS(=O)(=O)C3)/C=C/C[C@H](C)[C@@H](C)S(=O)(=O)NC(=O)c2ccc3c(c2)N(C[C@@H]2CC[C@H]21)C[C@@]1(CCCc2cc(Cl)ccc21)CO3 [Example 202] here.
A) -1.24

Q) Supply recorded log10 of IC50 for CO[C@@]1(CN2CCN3CCN(C)C[C@@H]3C2)/C=C/C[C@H](C)[C@@H](C)S(=O)(=O)NC(=O)c2ccc3c(c2)N(C[C@@H]2CC[C@H]21)C[C@@]1(CCCc2cc(Cl)ccc21)CO3 [Example 210] here.
A) -0.86

Q) Supply recorded log10 of IC50 for CO[C@]1(CN2CCN3CCCC[C@@H]3C2)/C=C/[C@H](C)[C@H](C)CS(=O)(=O)NC(=O)c2ccc3c(c2)N(C[C@@H]2CC[C@H]21)C[C@@]1(CCCc2cc(Cl)ccc21)CO3 [Example 161] here.
A) -1.03

Q) Supply recorded log10 of IC50 for CC[C@@H]1CC/C=C/[C@@](CN2CCN3CCCC[C@@H]3C2)(OC)[C@@H]2CC[C@H]2CN2C[C@@]3(CCCc4cc(Cl)ccc43)COc3ccc(cc32)C(=O)NS1(=O)=O [Example 32] here.
A) -0.89

Q) Supply recorded log10 of IC50 for CC[C@@H]1CC/C=C/[C@](CN2CCN3CCOC[C@@H]3C2)(OC)[C@@H]2CC[C@H]2CN2C[C@@]3(CCCc4cc(Cl)ccc43)COc3ccc(cc32)C(=O)NS1(=O)=O [Example 28] here.
A) -1.09

Q) Supply recorded log10 of IC50 for CO[C@@]1(CN2CCn3ccnc3C2)/C=C/C[C@H](C)[C@@H](C)S(=O)(=O)NC(=O)c2ccc3c(c2)N(C[C@@H]2CC[C@H]21)C[C@@]1(CCCc2cc(Cl)ccc21)CO3 [Example 201] here.
A) -0.92

Q) Supply recorded log10 of IC50 for CO[C@@]1(CN2CCN3CCS(=O)(=O)C[C@@H]3C2)/C=C/C[C@H](C)[C@@H](C)S(=O)(=O)NC(=O)c2ccc3c(c2)N(C[C@@H]2CC[C@H]21)C[C@@]1(CCCc2cc(Cl)ccc21)CO3 (single isomer, unassigned) [Example 231] here.
A) -1.21

Q) Supply recorded log10 of IC50 for CO[C@]1(CN2CCN3CCC(F)(F)C[C@@H]3C2)/C=C/C[C@H](C)[C@@H](C)S(=O)(=O)NC(=O)c2ccc3c(c2)N(C[C@@H]2CC[C@H]21)C[C@@]1(CCCc2cc(Cl)ccc21)CO3 [Example 292] here.
A) -0.45

Q) Supply recorded log10 of IC50 for CO[C@@]1(CN2CCCN(C(C)C)CC2)/C=C/C[C@H](C)[C@@H](C)S(=O)(=O)NC(=O)c2ccc3c(c2)N(C[C@@H]2CC[C@H]21)C[C@@]1(CCCc2cc(Cl)ccc21)CO3 [Example 331] here.
A) -0.74
